Target: HLA-A*02:01 (Homo sapiens, UniProt P04439, D140Y/D185E/D98H/E176V/E277Q/G131W/G231S/I119V/I121R/I166T/I218V/L300P/L318F/N151K/N90K/P208A/P217A/Q86G/Q94H/R138H/R169H/T345S)
Assay: MHC binding assay: UV-ligand exchange with beta2m ELISA (exchange yield)
Details: binding to HLA-A*02:01, β2m ELISA
Excerpt: Candidate peptides for T cell based therapies according to the present invention were further tested for their MHC binding capacity (affinity). The individual peptide-MHC complexes were produced by UV-ligand exchange, where a UV-sensitive peptide is cleaved upon UV-irradiation, and exchanged with the peptide of interest as analyzed. Only peptide candidates that can effectively bind and stabilize the peptide-receptive MHC molecules prevent dissociation of the MHC complexes. […]
READOUT_LABEL: Peptide exchange (MHC class I binding score, peptide exchange yield)

These recorded examples may help you get a feel for the data.
{"columns": ["SUBSTANCE", "RESULT"],
 "data": [
  ["305 (SIANFSEFYV; listed as Homo sapiens) [compound 305]", "“++++” (≥75% = ++++)"],
  ["244 (SLFGGTEITI; listed as Homo sapiens) [compound 244]", "“+++” (≥50 = +++)"],
  ["110 (FLSQVDFEL; listed as Homo sapiens) [compound 110]", "“+++” (≥50 = +++)"],
  ["375 (SLTETIEGV; listed as Homo sapiens) [compound 375]", "“++” (≥20% = ++)"],
  ["385 (SLLEQGLVEA; listed as Homo sapiens) [compound 385]", "“++” (≥20% = ++)"],
  ["438 (KLLPLAGLYL; listed as Homo sapiens) [compound 438]", "“++++” (≥75% = ++++)"],
  ["391 (YVYPQRLNFV; listed as Homo sapiens) [compound 391]", "“+++” (≥50 = +++)"],
  ["461 (VMFRTPLASV; listed as Homo sapiens) [compound 461]", "“++” (≥20% = ++)"],
  ["618 (VLFDSESIGIYV; listed as Homo sapiens) [compound 618]", "“+++” (≥50 = +++)"],
  ["494 (ALQPEPIKV; listed as Homo sapiens) [compound 494]", "“++” (≥20% = ++)"]
]}

Please give the measured Peptide exchange (MHC class I binding score, peptide exchange yield) for this substance: 546 (VMIAGKVAVV; listed as Homo sapiens) [compound 546]
“+++” (≥50 = +++)

For the substance shown here, 353 (YLFEMDSSL; listed as Homo sapiens) [compound 353] , give the reported Peptide exchange (MHC class I binding score, peptide exchange yield).
“++” (≥20% = ++)

Entry 555 (YVLEGLKSV; listed as Homo sapiens) [compound 555] : reported Peptide exchange (MHC class I binding score, peptide exchange yield) = ?
“+++” (≥50 = +++)
